log10 EC50 values, listed per item
# ASSAY TARGET: WT STING (Homo sapiens, UniProt Q86WV6, H232R)
# Sequence (Q86WV6 whole entry H232R): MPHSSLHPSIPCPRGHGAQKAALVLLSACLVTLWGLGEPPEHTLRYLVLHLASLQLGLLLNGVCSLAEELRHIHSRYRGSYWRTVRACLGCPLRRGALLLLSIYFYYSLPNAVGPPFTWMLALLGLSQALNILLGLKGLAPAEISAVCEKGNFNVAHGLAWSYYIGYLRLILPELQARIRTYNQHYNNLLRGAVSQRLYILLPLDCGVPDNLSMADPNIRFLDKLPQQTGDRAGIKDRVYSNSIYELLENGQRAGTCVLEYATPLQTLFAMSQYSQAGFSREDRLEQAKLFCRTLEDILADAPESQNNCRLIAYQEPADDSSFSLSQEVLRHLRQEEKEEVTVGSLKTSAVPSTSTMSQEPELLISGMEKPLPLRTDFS
# PROTOCOL: Digitonin assay using 293T wtSTING-FL reporter cells
# Format: cell-based
# Parameters: host or cells: 293T (ATCC CRL-3216), stably transfected, with 4xISRE firefly luciferase reporter
# RUN CONDITIONS: 293T wtSTING-FL cells, ISRE firefly luciferase; compounds in Digitonin buffer 30 minutes, then 5 hours; 8-point curve
# Source text: Two complementary oligonucleotides of the sequence […] […] The oligonucleotides were mixed in equal molar amounts, hybridized, and cleaved by restriction endonucleases HindIII (cat. #. R0104S, NEB, Ipswich, USA) and BglII (cat. #R0144S, NEB, Ipswich, USA). Ultimately, they were ligated into plasmid pGL4.27 (cat. #E6651, Promega, Madison, USA) linearized with the same enzymes. […]
OBSERVABLE: log10 EC50 (log10 of the value in nM)

compound="Nc1nc2c(ncn2[C@H]2CC3OP(=O)(O)OC[C@H]4O[C@@H](n5cnc6c(N)ncnc65)C(F)C4OP(=O)(O)OC[C@H]3C2)c(=O)[nH]1 (stereo partly shown)" observable="log10 EC50" result_number=0.85
compound="Nc1ncnc2c1ncn2[C@@H]1O[C@@H]2COP(=O)(O)OC3C(O)[C@H](n4cnc5c(=O)[nH]cnc54)C[C@@H]3COP(=O)(O)OC2C1O (stereo partly shown)" observable="log10 EC50" result_number=2.30
compound="Nc1ncnc2c1ncn2[C@@H]1C[C@@H]2COP(=O)(O)O[C@H]3[C@@H](F)[C@H](n4cnc5c(N)ncnc54)O[C@@H]3COP(=O)(S)O[C@H]2[C@H]1F (single isomer, unassigned) [Compound 130b]" observable="log10 EC50" result_number=1.00
compound=Nc1nc2c(ncn2[C@@H]2O[C@@H]3COP(=O)(O)O[C@@H]4[C@@H](COP(=O)(O)O[C@H]3[C@H]2F)C[C@@H](n2cnc3c(N)ncnc32)[C@@H]4F)c(=O)[nH]1 observable="log10 EC50" result_number=1.00
compound="Nc1nc2c(ncn2[C@H]2CC3OP(=O)(O)OC[C@H]4O[C@@H](n5cnc6c(N)ncnc65)CC4OP(=O)(O)OC[C@H]3C2)c(=O)[nH]1 (stereo partly shown)" observable="log10 EC50" result_number=2.30
compound="Nc1ncnc2c1ncn2[C@@H]1C[C@@H]2COP(=O)(S)O[C@H]3C[C@H](n4cnc5c(N)ncnc54)O[C@@H]3COP(=O)(S)O[C@H]2[C@H]1F (single isomer, unassigned) [Compound 142a]" observable="log10 EC50" result_number=1.48
compound=Nc1ncnc2c1ncn2[C@@H]1C[C@@H]2COP(=O)(O)O[C@H]3[C@@H](F)[C@H](n4cnc5c(N)ncnc54)O[C@@H]3COP(=O)(O)O[C@H]2[C@H]1O observable="log10 EC50" result_number=1.30
compound="Nc1ncnc2c1ncn2[C@@H]1C[C@@H]2COP(=O)(S)O[C@@H]3[C@@H](COP(=O)(S)O[C@H]2[C@H]1F)C[C@@H](n1cnc2c(N)ncnc21)[C@@H]3F (single isomer, unassigned) [Compound 128a]" observable="log10 EC50" result_number=1.00
compound="Nc1nc2c(ncn2[C@@H]2O[C@@H]3COP(=O)(O)OC4C(O)[C@H](n5cnc6c(N)ncnc65)C[C@@H]4COP(=O)(O)OC3C2O)c(=O)[nH]1 (stereo partly shown) [Compound 112]" observable="log10 EC50" result_number=2.08
compound="Nc1ncnc2c1ncn2[C@@H]1C[C@@H]2COP(=O)(O)OC3C[C@H](n4cnc5c(N)ncnc54)O[C@@H]3COP(=O)(O)OC2C1F (stereo partly shown)" observable="log10 EC50" result_number=1.70
